Taken from patent US20070049593A1.

# Assay target: HCV polymerase (Hepatitis C virus genotype 1b, UniProt P26663)
# Construct: a region encoding NS5B (J Virol 1991 March, 65(3), 1105-13, 544 amino acids after deletion of 47 amino acids on the C-terminal); 6xHis (C); made in house; host or cells: Escherichia coli
# Sequence (P26663 2420-2963): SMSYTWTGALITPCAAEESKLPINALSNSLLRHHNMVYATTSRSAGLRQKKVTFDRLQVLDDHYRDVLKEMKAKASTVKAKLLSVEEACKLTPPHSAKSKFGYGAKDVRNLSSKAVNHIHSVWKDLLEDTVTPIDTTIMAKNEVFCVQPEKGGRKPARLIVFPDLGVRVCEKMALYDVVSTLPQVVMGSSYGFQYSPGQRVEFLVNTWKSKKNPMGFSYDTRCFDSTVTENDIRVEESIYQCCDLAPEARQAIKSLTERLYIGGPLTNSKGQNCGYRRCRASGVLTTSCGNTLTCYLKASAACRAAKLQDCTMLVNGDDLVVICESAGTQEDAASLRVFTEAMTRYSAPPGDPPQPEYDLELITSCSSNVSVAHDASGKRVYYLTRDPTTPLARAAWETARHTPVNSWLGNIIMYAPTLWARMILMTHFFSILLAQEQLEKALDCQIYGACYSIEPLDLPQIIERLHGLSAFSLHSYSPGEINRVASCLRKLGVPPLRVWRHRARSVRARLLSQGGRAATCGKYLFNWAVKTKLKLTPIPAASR
# Protocol notes: biochemical
# Set-up: species or system HCV BK strain
Structures can show the parent of a compound that is named as a salt.
Observable: IC50

{"columns": ["Compound", "Observable", "Value reported"],
 "data": [
  ["CCOc1ccc2c(c1)N(CCN1CCC[C@@H](COC)C1)CCn1c-2c(C2CCCCC2)c2ccc(C(=O)O)cc21 [Example 1-499, dihydrochloride]", "IC50", "< 100 nM"],
  ["CC1CCCN(CCN2CCn3c(c(C4CCCCC4)c4ccc(C(=O)O)cc43)-c3ccc(Cl)cc32)C1 (stereo not drawn) [Example 1-214, dihydrochloride]", "IC50", "< 100 nM"]
]}

Task: Let me know recorded IC50 for O=C(O)c1ccc2c(C3CCCCC3)c3n(c2c1)CCN(CC(=O)N1CCCCC1)c1cc(Cl)ccc1-3 [Example 1-77, monohydrochloride] , thanks.
Result: < 100 nM
